Assay: Apparent permeability across basolateral to apical side in human Caco-2 cells assessed as drug recovery at 2 uM incubated for 2 hrs by LC-MS/MS analysis
Assay type: ADME, cell-based
Settings: read-out: Drug recovery
readoutKind: recovery at 2 h, 2 µM

In [3]: df
Out[3]:
                             compoundstring            readoutkind   result
0  O=C(CCCCCN1C(=O)C=CC1=O)NCCCCCCNC(=O)CCc1cc(Cl)c(Oc2ccncc2C(=O)N2CCN(C3CC3)c3ccccc32)cc1Cl  recovery at 2 h, 2 µM  < 22.8%

---

Test: Apparent permeability across apical to basolateral side in human Caco-2 cells at 10 uM incubated for 2 hrs by LC-MS/MS analysis
readoutKind: Papp A→B at 2 h, 10 µM (×10⁻⁶ cm/s)

compound	readoutKind	recordedNumber
C[C@H]1O[C@@H](O[C@H]2[C@@H](O)C[C@H](O[C@H]3[C@@H](O)C[C@H](O[C@H]4CC[C@@]5(C)[C@H](CC[C@@H]6[C@@H]5C[C@@H](O)[C@]5(C)[C@@H](C7=CC(=O)OC7)CC[C@]65O)C4)O[C@@H]3C)O[C@@H]2C)C[C@H](O)[C@@H]1O [DIGOXIN]	Papp A→B at 2 h, 10 µM	0.024

---

pEC50 listing for selected compounds.
Biological target: G-protein coupled bile acid receptor 1 (Mus musculus)
Sequence (Q80SS6 whole entry): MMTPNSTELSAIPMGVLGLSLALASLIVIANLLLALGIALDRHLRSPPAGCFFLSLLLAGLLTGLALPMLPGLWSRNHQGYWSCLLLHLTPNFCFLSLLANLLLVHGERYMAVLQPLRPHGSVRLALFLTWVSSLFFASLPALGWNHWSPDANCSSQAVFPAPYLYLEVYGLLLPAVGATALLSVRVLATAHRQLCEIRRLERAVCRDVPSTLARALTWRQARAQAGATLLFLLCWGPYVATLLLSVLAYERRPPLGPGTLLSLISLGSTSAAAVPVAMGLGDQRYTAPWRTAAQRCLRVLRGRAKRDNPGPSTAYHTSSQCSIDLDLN
Experiment: Agonist activity at mouse TGR5 expressed in HEK293T cells assessed as cAMP production incubated for 30 mins by HTRF assay
pEC50: −log10 of the molar value.
readoutKind: pEC50

In [3]: df
Out[3]:
                             compoundstring  readoutkind  recordednumber
0  O=C(CCCCCN1C(=O)C=CC1=O)NCCCCNC(=O)CCc1cc(Cl)c(Oc2ccncc2C(=O)N2CCN(C3CC3)c3ccccc32)cc1Cl        pEC50            6.08
1  O=C(CCCCCN1C(=O)C=CC1=O)NCCCCCCNC(=O)CCc1cc(Cl)c(Oc2ccncc2C(=O)N2CCN(C3CC3)c3ccccc32)cc1Cl        pEC50            6.86
2  O=C(CCCCCN1C(=O)C=CC1=O)NCCCCCCCCNC(=O)CCc1cc(Cl)c(Oc2ccncc2C(=O)N2CCN(C3CC3)c3ccccc32)cc1Cl        pEC50            6.40

---

Experiment: Apparent permeability across apical to basolateral side in human Caco-2 cells assessed as drug recovery at 10 uM incubated for 2 hrs by LC-MS/MS analysis

compoundString	unitAnnotation	recovery at 2 h, 10 µM
C[C@H]1O[C@@H](O[C@H]2[C@@H](O)C[C@H](O[C@H]3[C@@H](O)C[C@H](O[C@H]4CC[C@@]5(C)[C@H](CC[C@@H]6[C@@H]5C[C@@H](O)[C@]5(C)[C@@H](C7=CC(=O)OC7)CC[C@]65O)C4)O[C@@H]3C)O[C@@H]2C)C[C@H](O)[C@@H]1O	%	102
